system_tested: GABA transporter 4 (Mus musculus)
Sequence (P31650 whole entry): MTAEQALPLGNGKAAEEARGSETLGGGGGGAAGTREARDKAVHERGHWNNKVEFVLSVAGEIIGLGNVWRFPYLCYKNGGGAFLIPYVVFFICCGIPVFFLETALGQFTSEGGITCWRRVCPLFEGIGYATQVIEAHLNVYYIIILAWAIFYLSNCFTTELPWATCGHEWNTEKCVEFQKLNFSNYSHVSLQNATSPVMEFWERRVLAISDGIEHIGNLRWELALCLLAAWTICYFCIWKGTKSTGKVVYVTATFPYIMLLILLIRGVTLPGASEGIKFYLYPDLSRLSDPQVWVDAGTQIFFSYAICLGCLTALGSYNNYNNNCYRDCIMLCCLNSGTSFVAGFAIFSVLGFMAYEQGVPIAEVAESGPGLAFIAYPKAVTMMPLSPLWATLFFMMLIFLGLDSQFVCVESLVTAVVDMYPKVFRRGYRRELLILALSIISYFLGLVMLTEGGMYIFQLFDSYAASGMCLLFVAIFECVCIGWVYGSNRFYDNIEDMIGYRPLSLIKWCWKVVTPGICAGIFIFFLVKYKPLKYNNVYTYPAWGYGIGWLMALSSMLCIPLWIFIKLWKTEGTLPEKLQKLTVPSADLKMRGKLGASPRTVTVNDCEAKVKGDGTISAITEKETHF
assay_details: Inhibition of mouse GAT4 expressed in human HEK293 cell line assessed as inhibition of [3H]GABA uptake measured after 40 mins by […]
Format: cell-based
Please use criterion met for IC50 under 10 µM and criterion not met for everything else, ties included.

• CN(CCC=C1c2ccccc2C=Cc2ccccc21)C(CCO)C(=O)NCc1ccc(Cl)cc1 (centres undefined) = criterion not met
• Cc1ccc(CNC(=O)C(CCO)N(C)CCC=C2c3ccccc3CCc3ccccc32)cc1 (centres undefined) = criterion not met
• CN(CCC=C1c2ccccc2CCc2ccccc21)C(CCN)C(=O)NCc1ccc(Cl)cc1 (centres undefined) = criterion met

Please state whether IC50 is below 10 µM for CC(=O)NCCC(C(=O)NCc1ccc(C)cc1)N(C)CCC=C1c2ccccc2CCc2ccccc21 (centres undefined)
criterion not met

Please state whether IC50 is below 10 µM for CN(CCC=C1c2ccccc2-c2ccccc21)C(CCO)C(=O)NCc1ccccc1 (centres undefined)
criterion not met

Please state whether IC50 is below 10 µM for CN(CCC=C1c2ccccc2CCc2ccccc21)C(CCN)C(=O)NCc1ccccc1 (centres undefined)
criterion met

Please state whether IC50 is below 10 µM for CN(CCC=C1c2ccccc2CCc2ccccc21)C(CCN)C(=O)NCc1ccccc1Cl (centres undefined)
criterion met

Please state whether IC50 is below 10 µM for Cc1ccc(CNC(=O)C(CCO)N(C)CCC=C2c3ccccc3-c3ccccc32)cc1 (centres undefined)
criterion not met

Please state whether IC50 is below 10 µM for CN(CCC=C1c2ccccc2CCc2ccccc21)C(CCO)C(=O)NCc1ccccc1Cl (centres undefined)
criterion not met

====

system_tested: Sodium- and chloride-dependent GABA transporter 1 (Mus musculus, UniProt P31648)
assay_details: Inhibition of mouse GAT1 expressed in human HEK293 cell line assessed as inhibition of [3H]GABA uptake measured after 40 mins by […]
experimental_endpoint: pIC50
Scale note: pIC50 = -log10(concentration in M).

A selection of reference data follows.
• CC(=O)NCCC(C(=O)NCc1ccc(F)cc1)N(C)CCC=C1c2ccccc2CCc2ccccc21 (stereo not drawn) = 4.86
• CC(=O)NCCC(C(=O)NCc1ccc(C)cc1)N(C)CCC=C1c2ccccc2CCc2ccccc21 (stereo not drawn) = 4.86
• CN(CCC=C1c2ccccc2CCc2ccccc21)C(CCO)C(=O)NCc1ccc(Cl)cc1 (stereo not drawn) = 5.00
• CN(CCC=C1c2ccccc2CCc2ccccc21)C(CCN)C(=O)NCc1ccc(Cl)cc1 (stereo not drawn) = 5.20
• CN(CCC=C1c2ccccc2C=Cc2ccccc21)C(CCO)C(=O)NCc1ccc(F)cc1 (stereo not drawn) = 4.66
• CN(CCC=C1c2ccccc2C=Cc2ccccc21)C(CCO)C(=O)NCc1ccccc1 (stereo not drawn) = 4.66

# return recorded pIC50 for entry CN(CCC=C1c2ccccc2-c2ccccc21)C(CCO)C(=O)NCc1ccc(F)cc1 (stereo not drawn)
4.43

# return recorded pIC50 for entry O=C(O)C1CCCN(CCC=C2c3ccccc3CCc3ccccc32)C1 (stereo not drawn)
4.87

====

system_tested: GABA transporter 4 (Mus musculus)
assay_details: Inhibition of mouse GAT4 expressed in human HEK293 cell line assessed as inhibition of [3H]GABA uptake measured after 40 mins by […]
Format: cell-based
The molecules listed here are annotated with their IC50.
Answer format: value, then unit.

A selection of reference data follows.
* CN(CCC=C(c1ccccc1)c1ccccc1)C(CCO)C(=O)NCc1ccccc1Cl (stereo not drawn) | 10 µM
* COc1ccc(C(OCCN2CCC[C@H](C(=O)O)C2)(c2ccc(OC)cc2)c2ccc(-c3ccc(C=O)cc3)cc2)cc1 | 1.29 µM
* CN(CCC=C1c2ccccc2C=Cc2ccccc21)C(CCO)C(=O)NCc1ccc(F)cc1 (stereo not drawn) | 13.5 µM
* CN(CCC=C1c2ccccc2-c2ccccc21)C(CCO)C(=O)NCc1ccccc1Cl (stereo not drawn) | 26.9 µM

# return recorded IC50 for entry CC(=O)NCCC(C(=O)NCc1ccccc1Cl)N(C)CCC=C1c2ccccc2CCc2ccccc21 (stereo not drawn)
18.6 µM

# return recorded IC50 for entry Cc1ccc(CNC(=O)C(CCN)N(C)CCC=C2c3ccccc3CCc3ccccc32)cc1 (stereo not drawn)
6.46 µM

# return recorded IC50 for entry CC(=O)NCCC(C(=O)NCc1ccccc1)N(C)CCC=C1c2ccccc2CCc2ccccc21 (stereo not drawn)
17.8 µM

# return recorded IC50 for entry CN(CCC=C1c2ccccc2CCc2ccccc21)C(CCN)C(=O)NCc1ccc(F)cc1 (stereo not drawn)
4.37 µM

# return recorded IC50 for entry CN(CCC=C1c2ccccc2-c2ccccc21)C(CCO)C(=O)NCc1ccc(F)cc1 (stereo not drawn)
35.5 µM

# return recorded IC50 for entry CN(CCC=C1c2ccccc2-c2ccccc21)C(CCO)C(=O)NCc1ccc(Cl)cc1 (stereo not drawn)
44.7 µM

# return recorded IC50 for entry CN(CCC=C1c2ccccc2CCc2ccccc21)C(CCO)C(=O)NCc1ccc(Cl)cc1 (stereo not drawn)
15.8 µM

# return recorded IC50 for entry CC(=O)NCCC(C(=O)NCc1ccc(Cl)cc1)N(C)CCC=C1c2ccccc2CCc2ccccc21 (stereo not drawn)
12.6 µM

# return recorded IC50 for entry CC(=O)NCCC(C(=O)NCc1ccc(F)cc1)N(C)CCC=C1c2ccccc2CCc2ccccc21 (stereo not drawn)
11.2 µM
